Would you mind telling me the reported Papp A→B at 1 h, 5 μM of each entry?
Assay: Bidirectional transport assay across Caco-2 WT monolayers
Conditions: human, Caco-2, pH 7.4
Answers are plain numbers, in ×10⁻⁶ cm/s.

Cc1c(O)cccc1C(=O)N[C@@H](CSc1ccccc1)[C@H](O)CN1C[C@H]2CCCC[C@H]2C[C@H]1C(=O)NC(C)(C)C; 2.78

For every listed record, write down its Papp A→B at 1 h, 5 μM.
1. Cc1cccc(C)c1OCC(=O)N[C@@H](Cc1ccccc1)[C@@H](O)C[C@H](Cc1ccccc1)NC(=O)[C@H](C(C)C)N1CCCNC1=O
2. C[C@H]1O[C@@H](O[C@H]2[C@@H](O)C[C@H](O[C@H]3[C@@H](O)C[C@H](O[C@H]4CC[C@@]5(C)[C@H](CC[C@@H]6[C@@H]5C[C@@H](O)[C@]5(C)[C@@H](C7=CC(=O)OC7)CC[C@]65O)C4)O[C@@H]3C)O[C@@H]2C)C[C@H](O)[C@@H]1O

-- reply
1. 3.25
2. 1.48
